Target: T1, Cynomolgus macaques TSLP recombinant protein (Cynomolgus macaques, UniProt Q969D9 29-159 (human entry), limits assumed, biotinylated in the blocking assays (sites not given))
T1 construct: also called cyTSLP; biotinylated Cynomolgus macaques TSLP protein
T1 chain: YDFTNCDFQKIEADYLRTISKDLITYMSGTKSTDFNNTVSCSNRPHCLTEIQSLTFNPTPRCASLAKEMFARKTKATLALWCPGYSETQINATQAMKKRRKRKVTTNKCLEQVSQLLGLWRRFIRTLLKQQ
Assay: competition ELISA, biotin-cynomolgus TSLP to coated cynomolgus TSLPR-Fc
Listed here are binders together with their documented IC50.
Quick reminder: number only, in nM, skip the unit.

binder	recorded_metric	unit_of_measurement	numeric_result
Ab21 (antibody, V domains shown, Humanized; also called h71G4VHv3/h71G4VKv1) VH: QVQLVQSGAEVKKPGSSVKVSCKASGYTFTDYWMHWVRQAPGQGLEWMGTIDNSDSDTTYNQKFQGRVTMTRDTSTSTVYMELSSLRSEDTAVYYCARSVDGYLDYWGQGTLVTVSS VL: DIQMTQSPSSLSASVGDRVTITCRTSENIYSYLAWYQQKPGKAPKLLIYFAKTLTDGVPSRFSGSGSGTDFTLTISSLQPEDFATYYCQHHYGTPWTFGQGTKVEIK	IC50	nM	1.08

Incoming: What value of IC50 has been reported for the following binder? Ab25 (antibody, V domains shown, Humanized; also called h39G5VHv6/h71G4VKv1) VH: QVQLVQSGAEVKKPGSSVKVSCKASGYTFTDYWMHWVRQAPGQGLEWMGTIDNSDSDTSLNQKFQGRVTLTVDTSTSTAYMELSSLRSEDTAVYYCARSLDGYYDYWGQGTLVTVSS VL: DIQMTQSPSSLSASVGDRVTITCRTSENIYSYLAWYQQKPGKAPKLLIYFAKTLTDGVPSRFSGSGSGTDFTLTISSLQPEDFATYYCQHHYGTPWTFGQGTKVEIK
Outgoing: 0.85

Incoming: What value of IC50 has been reported for the following binder? Ab19 (antibody, V domains shown, Humanized; also called h71G4VHv1/h71G4VKv1) VH: QVQLVQSGAEVKKPGSSVKVSCKASGYTFTDYWMHWVRQAPGQGLEWMGTIDNSDSDTTYNPSFQGHVTISADKSISTAYLQWSSLKASDTAMYYCARSVDGYLDYWGQGTLVTVSS VL: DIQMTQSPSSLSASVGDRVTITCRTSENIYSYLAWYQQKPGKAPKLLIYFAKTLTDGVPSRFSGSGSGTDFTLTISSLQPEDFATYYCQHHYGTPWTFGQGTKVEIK
Outgoing: 1.76
